tested on: ROCK2 (rat); test: radiometric filter-binding kinase assay; conditions: compound 10.0 µM; ATP 100 µM; accession and sequence are those of the human protein
Assign rule met to entries whose residual activity meets or exceeds 60%; assign rule not met to the rest.

Example entries begin here.
Smiles input	Tgt	Class label
Cc1ccc(-c2nn(C(C)(C)C)c3ncnc(N)c23)cc1	ROCK2 (rat)	rule met
CC[C@@H](CO)Nc1nc(NCc2ccccc2)c2ncn(C(C)C)c2n1	ROCK2 (rat)	rule met
CC(C)[C@H](CO)Nc1nc(Nc2cccc(Cl)c2)c2ncn(C(C)C)c2n1	ROCK2 (rat)	rule not met

## Input Hello, I need to know if `O=C(O[C@@H]1Cc2c(O)cc(O)cc2O[C@@H]1c1cc(O)c(O)c(O)c1)c1cc(O)c(O)c(O)c1` has measured residual activity not below 60%. Thanks!
## Output rule not met

## Input Then this molecule: `O=C1Nc2ccccc2/C1=C1\Nc2ccccc2\C1=N/O`
## Output rule not met

## Input Now consider `COC(=O)[C@@]1(OC)C[C@@H]2O[C@]1(C)n1c3ccccc3c3c4c(c5c6ccccc6n2c5c31)C(=O)N(C)C4` and answer again.
## Output rule met

## Input Next molecule: `CC(C)(C)n1nc(-c2ccc(Cl)cc2)c2c(N)ncnc21`
## Output rule met

## Input Then `CN(C)S(=O)(=O)c1ccc2c(c1)/C(=C/c1cc3c([nH]1)CCCC3)C(=O)N2` ?
## Output rule not met

## Input Can you handle `O=C1Cc2c([nH]c3ccc([N+](=O)[O-])cc23)-c2ccccc2N1` next?
## Output rule not met

## Input Next molecule up: `Nc1ncnc2c1cnn2-c1ccccc1`
## Output rule met

## Input Can you check `O=C1Cc2c([nH]c3ccc(Br)cc23)-c2ccccc2N1` next?
## Output rule not met

----------
biological target: PRKAA1 or PRKAA2 (rat); assay: radiometric filter-binding kinase assay; settings: ATP 100 µM; accession and sequence are those of the human protein
Observation type: pIC50
Numbers only, as −log10 of the molar value.

## Input Look at this molecule and give its reported pIC50. `O=C1Nc2ccccc2/C1=C1\Nc2ccccc2\C1=N/O`
## Output 6.66

----------
target: CSNK1A1 (rat); test: radiometric filter-binding kinase assay; details: ATP 100 µM; accession and sequence are those of the human protein
Observation type: pIC50
One number for each entry, as −log10 of the molar value.

## Input Given `Nc1ncnc2c1cnn2-c1ccccc1` , state its recorded pIC50.
## Output 5.00

----------
target: PDPK1 (human); assay: radiometric filter-binding kinase assay; conditions: compound 10.0 µM; ATP 100 µM
Lab note: compare residual activity against 50%. Equal or greater, write Y. Smaller, write N.

## Input API: above_or_equal(metric=residual activity, cutoff=50%) for item `Nc1ncnc2c1cnn2-c1ccccc1`
## Output Y

## Input Another compound: `O=C1Nc2ccccc2/C1=C1\Nc2ccccc2\C1=N/O`
## Output N

----------
So I've got a bunch of compounds here, and I need their residual activity values.
molecular target: PRKCA (human) (UniProt P17252); assay: radiometric filter-binding kinase assay; conditions: compound 10.0 µM; ATP 100 µM
Answers are plain numbers, in %.

Smiles input	residual activity (%)
COC(=O)[C@@]1(OC)C[C@@H]2O[C@]1(C)n1c3ccccc3c3c4c(c5c6ccccc6n2c5c31)C(=O)N(C)C4	102
Nc1ncnc2c1cnn2-c1ccccc1	100
Cc1ccc(-c2nn(C(C)(C)C)c3ncnc(N)c23)cc1	80
O=C1Nc2ccccc2/C1=C1\Nc2ccccc2\C1=N/O	68
CC(C)(C)n1nc(-c2ccc(Cl)cc2)c2c(N)ncnc21	66

Shift focus to the following entry.
## Input Form field: reported residual activity of `O=C(O[C@@H]1Cc2c(O)cc(O)cc2O[C@@H]1c1cc(O)c(O)c(O)c1)c1cc(O)c(O)c(O)c1`
## Output 76
